Experiment: Electrochemical behavior of the compound assessed as redox potential corrected toward normal hydrogen electrode at 10^-3 M by cyclic voltammetry
Assay type: physicochemical
Settings: 1000 µM
Below, each entry is listed alongside its reported Activity.
Numbers only here, please. The scale is V.

Examples with answers:
> print(dat)
                                    molecule   measure  value.measured
 1  CCC(C)c1cc(C(N)=S)ccn1 (stereo unspecified)  Activity            1.48
 2                 NC(=S)c1ccnc(CC(F)(F)F)c1  Activity            1.55
 3                     NC(=S)c1ccnc(C2CC2)c1  Activity             1.4
 4           NC(=S)c1ccnc(C2(C(F)(F)F)CC2)c1  Activity            1.65
 5                   CC(C)CCc1cc(C(N)=S)ccn1  Activity            1.63
 6                 NC(=S)c1ccnc(CC2CCCCC2)c1  Activity            1.62
 7          CCc1cc(C(N)=S)ccn1 [ETHIONAMIDE]  Activity            1.46
 8                      CCCCc1cc(C(N)=S)ccn1  Activity            1.39
 9        CCCc1cc(C(N)=S)ccn1 [PROTIONAMIDE]  Activity            1.43
10                    CC(C)Cc1cc(C(N)=S)ccn1  Activity            1.57

Now for a further molecule.
So what does the record say about Activity for CC(C)c1cc(C(N)=S)ccn1 ?
1.62

====

Below, each entry is listed alongside its reported log10 of MIC50.
Tested on: Mycobacterium tuberculosis
Experiment: Antimycobacterial activity against GFP expressing Mycobacterium tuberculosis H37Rv after 7 days in presence of EthR2 inhibitor SMARt-420 by fluorescence assay
Format: functional
Conditions: 168 h
Units before log transform: µM; reported quantity: MIC50; transform: log10.

Examples with answers:
> print(dat)
                           compound               target.entity         measure  value.measured
1  CCc1cc(C(N)=S)ccn1 [ETHIONAMIDE]  Mycobacterium tuberculosis  log10 of MIC50           -0.05
2   NC(=S)c1ccnc(C2(C(F)(F)F)CC2)c1  Mycobacterium tuberculosis  log10 of MIC50            1.00
3            CC(C)Cc1cc(C(N)=S)ccn1  Mycobacterium tuberculosis  log10 of MIC50            0.58
4    N#Cc1cccc(Cc2cc(C(N)=S)ccn2)c1  Mycobacterium tuberculosis  log10 of MIC50           -1.00
5       CCc1cc(/C(N)=[S+]/[O-])ccn1  Mycobacterium tuberculosis  log10 of MIC50           -0.52

Recall the recorded log10 of MIC50 for CC(C)CCc1cc(C(N)=S)ccn1 with Mycobacterium tuberculosis and state it.
-1.00

Recall the recorded log10 of MIC50 for NC(=S)c1ccnc(C2CC2)c1 with Mycobacterium tuberculosis and state it.
-0.30

Recall the recorded log10 of MIC50 for NC(=S)c1ccnc(Cc2ccc(F)cc2)c1 with Mycobacterium tuberculosis and state it.
-1.00

This collection of values is drawn from ChEMBL document CHEMBL4265968.
